System: 60 different human tumor cell lines
assay.comment: cells
experimental.conditions: IGROV-1, read-out: LC50
Here, each record is paired with measured CC50 data.

line.notation | measured.target | CC50
C[C@]12CC[C@H]3[C@@H](CC=C4c5sc(Nc6ccccc6)nc5CC[C@@]43C)[C@@H]1CC[C@@H]2O | 60 different human tumor cell lines | > 100 µM
C[C@]12CC[C@H]3[C@@H](CC=C4c5sc(-c6ccc(O)cc6)nc5CC[C@@]43C)[C@@H]1CC[C@@H]2O | 60 different human tumor cell lines | > 100 µM
C[C@]12CCc3sc(NCCc4ccccc4)nc3C1=CC[C@@H]1[C@@H]2CC[C@]2(C)C(=O)CC[C@@H]12 | 60 different human tumor cell lines | 65.6 µM
C[C@]12CCc3sc(Nc4ccc(F)cc4F)nc3C1=CC[C@@H]1[C@@H]2CC[C@]2(C)C(=O)CC[C@@H]12 | 60 different human tumor cell lines | > 100 µM
C[C@]12CCc3sc(Nc4cccc(O)c4)nc3C1=CC[C@@H]1[C@@H]2CC[C@]2(C)C(=O)CC[C@@H]12 | 60 different human tumor cell lines | > 100 µM

These data points were gathered from patent US20250296953A1.
